- Target entity: Gonadotropin-releasing hormone receptor (Rattus norvegicus) (UniProt P30969)
- Sequence (P30969 whole entry, looked up): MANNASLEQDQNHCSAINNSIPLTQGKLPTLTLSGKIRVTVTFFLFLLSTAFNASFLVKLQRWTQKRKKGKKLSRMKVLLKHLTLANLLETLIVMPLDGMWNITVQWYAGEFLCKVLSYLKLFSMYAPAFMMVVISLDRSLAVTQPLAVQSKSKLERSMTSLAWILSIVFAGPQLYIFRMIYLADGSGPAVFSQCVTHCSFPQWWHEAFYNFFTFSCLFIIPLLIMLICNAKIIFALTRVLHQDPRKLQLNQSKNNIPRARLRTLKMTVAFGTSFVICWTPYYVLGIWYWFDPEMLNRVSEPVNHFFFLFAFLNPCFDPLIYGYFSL
- Test description: Agonist activity at LH-RH receptor in rat pituitary gland assessed as change in luteinizing hormone secretion at 100000 ng/ml
Observable: Activity
Give your result as the value with the unit written after it.

Problem: Dear colleague, I am looking for the recorded Activity of the following compound: "CC(C)C[C@H](NC(=O)[C@@H](C)NC(=O)[C@H](Cc1ccc(O)cc1)NC(=O)[C@H](CO)NC(=O)[C@@H](NC(=O)[C@@H](NC(=O)[C@@H]1CCC(=O)N1)C(C)C)C(C)C)C(=O)N[C@@H](CCCNC(=N)N)C(=O)N1CCC[C@H]1C(=O)NCC(N)=O"
Solution: 17 ng/mL

Problem: Dear colleague, I am looking for the recorded Activity of the following compound: "CC(C)C[C@H](NC(=O)[C@@H](NC(=O)[C@@H]1CCC(=O)N1)C(C)C)C(=O)N[C@@H](CO)C(=O)N[C@@H](Cc1ccc(O)cc1)C(=O)N[C@H](C)C(=O)N[C@@H](CC(C)C)C(=O)N[C@@H](CCCNC(=N)N)C(=O)N1CCC[C@H]1C(=O)NCC(N)=O"
Solution: -9 ng/mL

Problem: Dear colleague, I am looking for the recorded Activity of the following compound: "CC(C)C[C@H](NC(=O)[C@@H]1CCC(=O)N1)C(=O)N[C@@H](CC(C)C)C(=O)N[C@@H](CO)C(=O)N[C@@H](Cc1ccc(O)cc1)C(=O)N[C@H](C)C(=O)N[C@@H](CC(C)C)C(=O)N[C@@H](CCCNC(=N)N)C(=O)N1CCC[C@H]1C(=O)NCC(N)=O"
Solution: 26 ng/mL

Problem: Dear colleague, I am looking for the recorded Activity of the following compound: "CC(C)C[C@H](NC(=O)[C@@H]1CCC(=O)N1)C(=O)N[C@H](C(=O)N[C@@H](CO)C(=O)N[C@@H](Cc1ccc(O)cc1)C(=O)N[C@H](C)C(=O)N[C@@H](CC(C)C)C(=O)N[C@@H](CCCNC(=N)N)C(=O)N1CCC[C@H]1C(=O)NCC(N)=O)C(C)C"
Solution: -37 ng/mL

###

- Target entity: Gonadotropin-releasing hormone receptor (Rattus norvegicus) (UniProt P30969)
- Test description: Antagonist activity at LH-RH receptor in rat pituitary gland assessed as inhibition of LH-RH-induced luteinizing hormone release
Square brackets hold non-standard residues; d marks the D form. Peptide text beside a SMILES is read from it. pGlu = O=C1CC[C@@H](C(=O)O)N1
Please provide measured MED for the entries that follow.
Respond numerically; units are µg/mL and should not be typed.

Problem: Dear colleague, I am looking for the recorded MED of the following compound: "CC(C)C[C@H](NC(=O)[C@@H]1CCC(=O)N1)C(=O)N[C@H](C(=O)N[C@@H](CO)C(=O)N[C@@H](Cc1ccc(O)cc1)C(=O)N[C@H](C)C(=O)N[C@@H](CC(C)C)C(=O)N[C@@H](CCCNC(=N)N)C(=O)N1CCC[C@H]1C(=O)NCC(N)=O)C(C)C"
Solution: 100

Problem: Dear colleague, I am looking for the recorded MED of the following compound: "CC(C)C[C@H](NC(=O)[C@@H]1CCC(=O)N1)C(=O)N[C@@H](CC(C)C)C(=O)N[C@@H](CO)C(=O)N[C@@H](Cc1ccc(O)cc1)C(=O)N[C@H](C)C(=O)N[C@@H](CC(C)C)C(=O)N[C@@H](CCCNC(=N)N)C(=O)N1CCC[C@H]1C(=O)NCC(N)=O"
Solution: 10

Problem: Dear colleague, I am looking for the recorded MED of the following compound: "CC(C)C[C@H](NC(=O)[C@@H](C)NC(=O)[C@H](Cc1ccc(O)cc1)NC(=O)[C@H](CO)NC(=O)[C@@H](NC(=O)[C@@H](NC(=O)[C@@H]1CCC(=O)N1)C(C)C)C(C)C)C(=O)N[C@@H](CCCNC(=N)N)C(=O)N1CCC[C@H]1C(=O)NCC(N)=O"
Solution: 100

Problem: Dear colleague, I am looking for the recorded MED of the following compound: CC(C)C[C@H](NC(=O)CNC(=O)[C@H](Cc1ccc(O)cc1)NC(=O)[C@H](CO)NC(=O)[C@H](Cc1c[nH]c2ccccc12)NC(=O)[C@@H]1CCC(=O)N1)C(=O)N[C@@H](CCCNC(=N)N)C(=O)N1CCC[C@H]1C(=O)NCC(N)=O ([pGlu]WSYGLRPG-NH2)
Solution: 30
